# System: K562
# assay-name: Induction of apoptosis in human K562 cells at 50 uM after 48 hrs
# Format: functional
reported-endpoint: Activity (%)
// units = %; emit number, no label

Consider the reported Activity for these compounds:
>  <mol>
O=C1/C(=C/c2coc3ccccc3c2=O)Oc2ccccc21

>  <reported-endpoint>
Activity

>  <observed-value>
17

$$$$
>  <mol>
Cc1ccc2c(c1)O/C(=C\c1coc3ccc(C)cc3c1=O)C2=O

>  <reported-endpoint>
Activity

>  <observed-value>
24

$$$$
>  <mol>
COc1cccc2occ(/C=C3\Oc4cc5ccccc5cc4C3=O)c(=O)c12

>  <reported-endpoint>
Activity

>  <observed-value>
17

$$$$
>  <mol>
COc1ccc2c(/C=C3\Oc4cc5ccccc5cc4C3=O)cc(=O)oc2c1

>  <reported-endpoint>
Activity

>  <observed-value>
24

$$$$

Sample `O=C1/C(=C/c2coc3ccc(Cl)cc3c2=O)Oc2cc3ccccc3cc21` ; Activity observed: 17

Activity measured on `COc1ccc2c(=O)c(/C=C3\Oc4ccccc4C3=O)coc2c1` = 17

`O=C1/C(=C/c2coc3ccccc3c2=O)Oc2cc3ccccc3cc21` yielded Activity of 17

Data point: `COc1ccc2c(/C=C3\Oc4cc(C)ccc4C3=O)cc(=O)oc2c1` ; Activity = 24

Activity in this record for `Cc1cc2occ(/C=C3\Oc4cc5ccccc5cc4C3=O)c(=O)c2cc1C` : 17
